Molecular target: T1, human MCAM (melanoma cell adhesion molecule) expressed on transfected CHO cells (human, UniProt P43121 24-646)
T1 construct: also called hMCAM; CD146
T1 chain: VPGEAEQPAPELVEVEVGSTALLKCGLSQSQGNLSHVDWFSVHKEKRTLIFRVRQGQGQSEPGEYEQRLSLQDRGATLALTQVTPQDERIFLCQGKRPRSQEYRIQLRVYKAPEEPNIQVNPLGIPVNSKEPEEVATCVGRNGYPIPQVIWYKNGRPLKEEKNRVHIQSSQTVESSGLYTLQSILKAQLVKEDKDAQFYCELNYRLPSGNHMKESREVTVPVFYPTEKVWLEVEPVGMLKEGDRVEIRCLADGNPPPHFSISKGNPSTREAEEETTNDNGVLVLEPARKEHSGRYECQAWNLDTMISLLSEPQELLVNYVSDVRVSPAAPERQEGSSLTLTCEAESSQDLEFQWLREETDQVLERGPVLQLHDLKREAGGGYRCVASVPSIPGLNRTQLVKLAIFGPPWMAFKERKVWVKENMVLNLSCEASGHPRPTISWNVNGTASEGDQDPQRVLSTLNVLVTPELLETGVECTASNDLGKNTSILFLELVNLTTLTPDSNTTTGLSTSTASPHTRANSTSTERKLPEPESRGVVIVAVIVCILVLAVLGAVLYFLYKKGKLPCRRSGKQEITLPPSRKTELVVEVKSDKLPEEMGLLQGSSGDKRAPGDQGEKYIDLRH
Assay: laminin/FACS on hMCAM CHO cells, competitor laminin 411; Expt#2; vs rodent 2120
Method: Following incubation for 30-45 minutes, the cells were washed and anti-laminin conjugated to AF650 (NovusBio) was added to detect the bound laminin. The cells were run on a flow cytometer to measure the laminin binding signal.
observedProperty: fold over rodent (blocking, laminin/FACS) (fold)
Your answer should be a plain number; it is taken to be in fold.

{"columns": ["binder", "endpointValue"],
 "data": [
  ["h2120_VH4 + h2120_VL3 (antibody, human IgG1, V domains shown) VH: QVTLKESGPVLVKPTETLTLTCTVSGFSLTSQGVSWVRQPPGKALEWIAAISSGGTTYYNSAFKSRLTISRDTSKSQVVLTMTNMDPVDTATYYCARRYGYGWYFDFWGQGTLVTVSS VL: DIQMTQSPSSLSASVGDRVTINCKASQNIYNSLAWYQQKPGKAPKVLIFNANSLQTGIPSRFSGSGSGTDFTLTISSLQPEDFATYYCQQFYSGYTFGQGTKLEIK", 5.6]
]}

What value of measured fold over rodent (blocking, laminin/FACS) is listed for h2120_VH5 + h2120_VL3 (antibody, human IgG1, V domains shown, also called h2120VH5VL3; VH5VL3) VH: QVTLKESGPVLVKPTETLTLTCTVSGFSLTSNAVSWVRQPPGKALEWIAAISSGGTTYYNSAFKSRLTISRDTSKSQVVLTMTNMDPVDTATYYCARRYGYGWYFDFWGQGTLVTVSS VL: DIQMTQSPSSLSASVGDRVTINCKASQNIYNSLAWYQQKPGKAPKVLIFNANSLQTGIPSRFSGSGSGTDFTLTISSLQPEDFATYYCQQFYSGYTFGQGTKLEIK ?
1.5
